Target: UniProt:Q12866
Sequence (Q12866 whole entry): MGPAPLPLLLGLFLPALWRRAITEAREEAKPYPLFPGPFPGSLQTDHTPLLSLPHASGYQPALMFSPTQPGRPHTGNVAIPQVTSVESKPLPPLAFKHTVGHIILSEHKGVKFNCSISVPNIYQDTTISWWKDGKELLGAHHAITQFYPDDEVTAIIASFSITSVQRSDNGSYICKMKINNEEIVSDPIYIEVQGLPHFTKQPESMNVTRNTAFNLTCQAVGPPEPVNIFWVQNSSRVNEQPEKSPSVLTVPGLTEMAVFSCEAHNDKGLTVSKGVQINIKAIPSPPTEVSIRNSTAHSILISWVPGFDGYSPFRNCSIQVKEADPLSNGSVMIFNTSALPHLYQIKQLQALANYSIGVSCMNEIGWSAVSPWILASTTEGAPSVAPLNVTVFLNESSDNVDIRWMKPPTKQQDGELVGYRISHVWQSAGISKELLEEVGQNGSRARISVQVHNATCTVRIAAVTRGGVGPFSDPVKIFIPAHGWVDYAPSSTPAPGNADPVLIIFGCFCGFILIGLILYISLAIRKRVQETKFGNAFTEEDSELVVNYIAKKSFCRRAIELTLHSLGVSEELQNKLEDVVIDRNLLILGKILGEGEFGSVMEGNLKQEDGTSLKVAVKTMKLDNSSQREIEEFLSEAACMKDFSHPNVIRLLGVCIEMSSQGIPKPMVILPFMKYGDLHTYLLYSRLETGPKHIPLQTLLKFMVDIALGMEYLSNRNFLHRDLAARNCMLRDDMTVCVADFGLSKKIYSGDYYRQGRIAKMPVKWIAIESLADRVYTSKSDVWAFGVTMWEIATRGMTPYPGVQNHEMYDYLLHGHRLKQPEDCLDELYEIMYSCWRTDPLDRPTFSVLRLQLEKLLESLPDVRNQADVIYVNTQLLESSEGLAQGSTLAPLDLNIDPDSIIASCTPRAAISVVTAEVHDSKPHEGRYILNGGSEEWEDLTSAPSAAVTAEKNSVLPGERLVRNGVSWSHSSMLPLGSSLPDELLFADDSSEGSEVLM
Assay: Binding affinity to MERTK (571 to 864 residue) (unknown origin) expressed in Escherichia coli Rosetta cells assessed as change in melting temperature by SYPRO orange dye based DSF assay
measuredMetric: deltaTm (K)

// solved cases for deltaTm follow
>  <itemSmiles>
O=C(NCCCN1CCCC1=O)c1cnc(NCc2ccccc2Br)nc1NC1CCCC1

>  <unitOfMeasurement>
K

>  <deltaTm>
-0.5

$$$$
>  <itemSmiles>
Cc1cc(Br)c(CNc2ncc(C(=O)NCCCN3CCOC3=O)c(NC3CCCCC3)n2)cc1Br

>  <unitOfMeasurement>
K

>  <deltaTm>
-0.5

$$$$

A: O=C(NCCCN1CCCC1=O)c1cnc(NCc2cc(Cl)ccc2Cl)nc1NC1CCCC1
B: O=C(NCCCN1CCCC1=O)c1cnc(NCc2ccccc2Cl)nc1NC1CCCC1
q: Of A versus B , which is the one with smaller reported deltaTm? Answer with the label corresponding to your selection.
a: A

A: O=C(NCCCN1CCCC1=O)c1cnc(NCc2cc(F)ccc2F)nc1NC1CCCC1
B: O=C(NCCCN1CCCC1=O)c1cnc(NCc2ccc(Br)cc2)nc1NC1CCCC1
q: Two entries are listed, A and B . Which one carries the higher deltaTm? Answer with the label corresponding to your selection.
a: A

I: O=C(NCCCN1CCOC1=O)c1cnc(NCc2cc(Br)ccc2Br)nc1NC1CCCC1
II: Cc1ccc(CNc2ncc(C(=O)NCCCN3CCOC3=O)c(NC3CCCC3)n2)c(Br)c1
III: O=C(NCCCN1CCCC1=O)c1cnc(NCc2cccc(Br)c2)nc1NC1CCCC1
IV: O=C(NCCCN1CCCC1=O)c1cnc(NCc2cc(Cl)ccc2Cl)nc1NC1CC1
V: O=C(NCCCN1CCCC1=O)c1cnc(NCc2ccc(Cl)cc2Cl)nc1NC1CCCC1
q: Arrange items by their deltaTm values in increasing order. Please respond with the labels ordered as the question requires.
a: I, IV, II, V, III

* * *

// endpoint deltaTm / system Peripheral plasma membrane protein CASK (Homo sapiens) (UniProt O14936)
measuredMetric: deltaTm (K)

// solved cases for deltaTm follow
>  <itemSmiles>
COc1ccc(OC)c(CNc2ncc(C(=O)NCCCN3CCCC3=O)c(NC3CCCC3)n2)c1

>  <val>
0.8

$$$$
>  <itemSmiles>
O=C(NCCCN1CCCC1=O)c1cnc(NCc2ccccc2Cl)nc1NC1CCCC1

>  <val>
3.3

$$$$

1: Cc1ccc(CNc2ncc(C(=O)NCCCN3CCOC3=O)c(NC3CCCC3)n2)c(Br)c1
2: O=C(NCCCN1CCCC1=O)c1cnc(NCc2cc(Cl)ccc2Cl)nc1NC1CC1
3: O=C(NCCCN1CCCC1=O)c1cnc(NCc2ccccc2)nc1NC1CCCC1
4: O=C(NCCCN1CCCC1=O)c1cnc(NCc2cccc(Br)c2)nc1NC1CCCC1
q: Arrange items by their deltaTm values in increasing order. Please respond with the labels ordered as the question requires.
a: 3, 2, 4, 1

* * *

Biological target: Casein kinase I isoform epsilon (Homo sapiens, UniProt P49674)
Sequence (P49674 whole entry, the tested form may be a part, canonical isoform): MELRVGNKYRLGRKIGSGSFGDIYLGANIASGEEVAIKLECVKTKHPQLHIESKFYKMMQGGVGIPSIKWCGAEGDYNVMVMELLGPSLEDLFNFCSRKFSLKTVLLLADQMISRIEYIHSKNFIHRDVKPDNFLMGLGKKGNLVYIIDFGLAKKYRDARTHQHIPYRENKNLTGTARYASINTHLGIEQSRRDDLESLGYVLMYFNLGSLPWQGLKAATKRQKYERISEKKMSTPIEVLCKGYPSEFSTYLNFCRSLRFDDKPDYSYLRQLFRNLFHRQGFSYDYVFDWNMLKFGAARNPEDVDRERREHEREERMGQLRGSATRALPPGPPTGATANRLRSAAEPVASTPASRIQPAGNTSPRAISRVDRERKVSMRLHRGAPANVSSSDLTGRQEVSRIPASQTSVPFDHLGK
Assay: Inhibition of tracer K5 binding to NanoLuc-fused CSNK1E (unknown origin) expressed in HEK293T cells measured after 2 hrs by NanoBRET assay
measuredMetric: IC50 (µM)
Report as a plain number; the unit µM is understood.

q: Determine its reported IC50: Cc1cc(Br)c(CNc2ncc(C(=O)NCCCN3CCOC3=O)c(NC3CCCCC3)n2)cc1Br
a: 22.1
